Values compiled from the supplement of paper PMC8728848.

# Measured Target: Fuc(a1-2)Gal(b1-3)GlcNAc(b1-3)[Neu5Ac(a2-6)Gal(b1-4)GlcNAc(b1-6)]Gal(b1-4)Glc
# Assay Notes: glycan array binding signal (z-score within array); higher = stronger binding
# Condition Summary: glycan notation: IUPAC condensed, linker removed
The full list was thinned out, with the strongest signals kept by preference.
Would you mind telling me the reported glycan array binding signal (z-score) of each entry?
Quick one: just the number, no unit, thanks!

glycan array binding signal (z-score) measured on SBD-G4S3-Fc (protein) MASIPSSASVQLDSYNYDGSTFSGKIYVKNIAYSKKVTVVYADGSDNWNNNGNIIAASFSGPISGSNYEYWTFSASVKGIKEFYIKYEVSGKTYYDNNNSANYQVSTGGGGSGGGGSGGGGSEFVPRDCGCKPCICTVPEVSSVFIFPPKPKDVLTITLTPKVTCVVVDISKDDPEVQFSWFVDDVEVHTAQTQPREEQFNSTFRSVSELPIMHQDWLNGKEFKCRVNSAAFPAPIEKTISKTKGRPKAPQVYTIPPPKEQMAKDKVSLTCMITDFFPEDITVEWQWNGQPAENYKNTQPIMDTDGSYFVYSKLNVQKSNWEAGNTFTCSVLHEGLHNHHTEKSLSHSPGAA = -0.478

glycan array binding signal (z-score) measured on DrGal9 (Danio rerio) (protein) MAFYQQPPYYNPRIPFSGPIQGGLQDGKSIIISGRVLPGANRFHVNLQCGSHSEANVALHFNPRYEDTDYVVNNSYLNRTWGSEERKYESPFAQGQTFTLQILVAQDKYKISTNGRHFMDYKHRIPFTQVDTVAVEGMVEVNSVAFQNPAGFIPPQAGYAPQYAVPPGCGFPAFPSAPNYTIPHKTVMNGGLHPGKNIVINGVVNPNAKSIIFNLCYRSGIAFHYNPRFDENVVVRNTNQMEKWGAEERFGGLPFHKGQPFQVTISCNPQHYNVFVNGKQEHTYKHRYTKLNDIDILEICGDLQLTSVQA = -0.123

glycan array binding signal (z-score) measured on AT1G15820(NC) (Arabidopsis thaliana) (protein) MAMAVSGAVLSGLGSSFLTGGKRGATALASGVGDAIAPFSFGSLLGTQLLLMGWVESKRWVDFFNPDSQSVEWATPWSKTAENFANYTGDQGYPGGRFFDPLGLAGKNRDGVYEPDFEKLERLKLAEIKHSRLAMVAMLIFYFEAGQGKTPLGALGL = -0.346
